- SYSTEM TESTED: glucocorticoid receptor (Homo sapiens, UniProt P04150)
- Construct: A549 cells stably transfected with a reporter gene; endogenous in cells; host or cells: A549 cells
- Sequence (P04150 whole entry): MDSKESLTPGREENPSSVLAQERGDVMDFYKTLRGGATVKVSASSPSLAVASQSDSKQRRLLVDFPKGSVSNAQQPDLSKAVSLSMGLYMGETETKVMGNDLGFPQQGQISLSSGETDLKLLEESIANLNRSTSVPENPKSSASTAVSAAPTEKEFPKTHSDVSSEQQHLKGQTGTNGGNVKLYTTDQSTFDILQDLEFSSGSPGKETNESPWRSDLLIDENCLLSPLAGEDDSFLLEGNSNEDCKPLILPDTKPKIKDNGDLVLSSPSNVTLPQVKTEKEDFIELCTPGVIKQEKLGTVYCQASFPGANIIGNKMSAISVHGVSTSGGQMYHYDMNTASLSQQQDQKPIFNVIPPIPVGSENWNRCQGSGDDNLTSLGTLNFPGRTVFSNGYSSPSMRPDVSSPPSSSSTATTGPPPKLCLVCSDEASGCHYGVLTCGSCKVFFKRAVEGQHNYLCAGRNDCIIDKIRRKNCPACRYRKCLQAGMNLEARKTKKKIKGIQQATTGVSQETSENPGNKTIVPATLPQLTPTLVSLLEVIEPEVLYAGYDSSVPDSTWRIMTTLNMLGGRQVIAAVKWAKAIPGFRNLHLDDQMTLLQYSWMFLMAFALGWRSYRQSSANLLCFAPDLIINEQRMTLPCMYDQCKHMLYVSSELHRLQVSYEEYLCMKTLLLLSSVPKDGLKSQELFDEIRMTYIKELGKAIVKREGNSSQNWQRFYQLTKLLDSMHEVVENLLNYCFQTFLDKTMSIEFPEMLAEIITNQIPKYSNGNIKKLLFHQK
- PROTOCOL: Assay for transactivation activity of the glucocorticoid agonists (MMTV-LTR renilla luciferase reporter in A549 cells)
- Assay type: cell-based
- RECORDED CONDITIONS: compound 6 hour at 37° C., read-out: maximal response relative to Dexamethasone (100%) (transactivation)
ASSAY READOUT: Emax

Give Emax (glucocorticoid receptor (Homo sapiens, UniProt P04150)) of the following compound: C[C@@H]1C[C@H]2[C@@H]3C[C@H](F)C4=CC(=O)C=C[C@]4(C)[C@@]3(F)[C@@H](O)C[C@]2(C)[C@@]1(OC(=O)OC1CCCCCCC1)C(=O)OCF
< 25%

Given the entry C[C@@H]1C[C@H]2[C@@H]3C[C@H](F)C4=CC(=O)C=C[C@]4(C)[C@@]3(F)[C@@H](O)C[C@]2(C)[C@@]1(OC(=O)OC1CCCC(C)(C)C1)C(=O)OCF (stereo partly drawn) , what Emax was observed with glucocorticoid receptor (Homo sapiens, UniProt P04150)?
< 25%

Quick check: Emax on glucocorticoid receptor (Homo sapiens, UniProt P04150), item CCC(CC)OC(=O)O[C@]1(C(=O)OCF)[C@H](C)C[C@H]2[C@@H]3C[C@H](F)C4=CC(=O)C=C[C@]4(C)[C@@]3(F)[C@@H](O)C[C@@]21C ?
< 25%
